# Assay Procedure: Caspase-3/7 induction in CHO-K1 cells by small molecules, qHTS cell viability counter screen (AID 1346979); also: nearly all actives have a fitted effect of over 35% in size; also: potency is read from the fitted curve at half-maximal effect
# Run Parameters: CellTiter-Fluor fluorescence, 17 h; series mostly up to 92.4 µM
# Text: National Center for Advancing Translational Sciences [NCATS] NIH Chemical Genomics Center [NCGC] U.S. Environmental Protection Agency [EPA] National Institutes of Environmental Health Sciences [NIEHS] National Toxicology Program [NTP] U.S. Food and Drug Administration [FDA] Apoptosis is a process of programmed cell death and plays a central role in the development of multicellular organisms. […]
Records with an inconclusive call do not appear. The source made the active and inactive calls. Calls follow the shape of the dose curve; as a rule, active = well fitted cell-killing curve with a large enough effect in the repeat runs; inconclusive = weak or mixed curves, or effect the other way; inactive = no such curve, though single readings can be large or run the other way.
Property Name: Potency

{"Smiles Code": "NC(=O)NS(=O)(=O)c1ccc(N)cc1", "Potency": "inactive"}
{"Smiles Code": "CCN(CCC#N)c1ccc(N=Nc2c(Cl)cc([N+](=O)[O-])cc2Cl)cc1", "Potency": "48.6 µM (active)"}
{"Smiles Code": "CCCCN(CCCC)C(=O)N(CCCC)CCCC", "Potency": "inactive"}
{"Smiles Code": "CC[C@@]1(O)C(=O)OCc2c1cc1n(c2=O)Cc2c-1nc1ccccc1c2/C=N/OC(C)(C)C", "Potency": "0.75 µM (active)"}
{"Smiles Code": "CCCCCCCCn1sc(Cl)c(Cl)c1=O", "Potency": "2.73 µM (active)"}
{"Smiles Code": "Cc1[nH]cnc1C[C@H]1CCc2c(C)c3ccccc3n2C1=O", "Potency": "47.4 µM (active)"}

Query block: Requested read-out: Potency. Entry: C[C@]12CCC(=O)C=C1CC[C@@H]1[C@@H]2[C@@H](O)C[C@@]2(C)[C@H]1CC[C@]2(O)C(=O)COC(=O)CCC(=O)O
Result block: inactive

Query block: Also, CSc1ccc(C(=O)c2[nH]c(=O)[nH]c2C)cc1 please.
Result block: inactive

Query block: Also, CCCCCCCCCCCC(=O)NCCCN(C)C please.
Result block: 54.5 µM (active)

Query block: Also, NC(=NCCCCCCN=C(N)/N=C(\N)Nc1ccc(Cl)cc1)/N=C(\N)Nc1ccc(Cl)cc1 please.
Result block: 24.2 µM (active) [middle of 5 runs]

Query block: Also, Cc1cc(N)c(S(=O)(=O)O)cc1Cl please.
Result block: inactive

###

# Assay Procedure: qHTS assay to identify small molecule agonists of the peroxisome proliferator-activated receptor delta (PPARd) signaling pathway - cell viability counter screen (AID 743211); also: nearly all actives have a fitted effect of over 55% in size
# Run Parameters: PPARd-bla HEK293H viability, CellTiter-Glo luminescence, 17 h; series mostly up to 62.6 µM
Results filed as inconclusive are left out. Active and inactive are the calls of the source. The call rests on the fitted dose curve; in most records, active means well fitted cell-killing curve with a large enough effect in the repeat runs; inconclusive means weak or mixed curves; inactive means no such curve, though single readings can be large or run the other way.
Use one of these outcomes when replying: 1 for active, -1 for inactive

{"Molecule": "CCCCc1oc2ccc(NS(C)(=O)=O)cc2c1C(=O)c1ccc(OCCCN(CCCC)CCCC)cc1", "Group": 1}
{"Molecule": "ON=C1CCCC1", "Group": -1}
{"Molecule": "CC[C@H]1O[C@]2(CC[C@@H]1C)C[C@@H]1C[C@@H](C/C=C(\\C)C[C@@H](C)/C=C/C=C3\\CO[C@@H]4[C@H](O)C(C)=C[C@@H](C(=O)O1)[C@]34O)O2", "Group": 1}
{"Molecule": "CCCCC(CC)CN=C(N)NC(N)=NCCCCCCN=C(N)NC(N)=NCC(CC)CCCC (stereo unspecified)", "Group": 1}
{"Molecule": "COc1cc(-c2ccc(N=C=O)c(OC)c2)ccc1N=C=O", "Group": -1}
{"Molecule": "CN(C)c1ccc(SC#N)cc1", "Group": -1}
{"Molecule": "Cc1cc(O)c(Cl)c(C)c1Cl", "Group": 1}
{"Molecule": "CN(C)CCCOC1(Cc2ccccc2)CCCCCC1", "Group": -1}
{"Molecule": "CCCCCCCC/C=C/CCCCCCCC1=NCCN1CCO", "Group": 1}
{"Molecule": "O=[N+]([O-])c1cc([N+](=O)[O-])c2ccc(S(=O)(=O)O)cc2c1O", "Group": -1}

Consider the record given below.
Query block: GET /call?item= CCC(C)(C)C1CCCCC1OC(C)=O (stereo unspecified) returns the recorded outcome of this test.
Result block: -1

###

# Assay Procedure: qHTS assay to identify small molecule antagonists of the retinoic acid receptor (RAR) signaling pathway (AID 1159552; also: nearly all actives have a fitted effect of over 50% in size)
# Run Parameters: C3RL4 RARE luciferase reporter, retinol-stimulated, 6 h; series mostly up to 92.4 µM
Results filed as inconclusive are left out. The source made the active and inactive calls. Calls come from the whole dose curve; as a rule, active = well fitted inhibition curve with a large enough effect in the repeat runs; inconclusive = weak or mixed curves, or effect the other way; inactive = no such curve, though single readings can be large or run the other way.
Use one of these outcomes when replying: active, inactive

For orientation, consider the following solved cases.
{"Compound": "CCCCCOC(=O)CCCC", "Group": "inactive"}
{"Compound": "CO[Si](CCCNc1ccccc1)(OC)OC", "Group": "inactive"}
{"Compound": "Nc1cc(C(F)(F)F)ccc1S", "Group": "active"}

Query block: GET /call?item= O=c1[nH]sc2ccccc12 returns the recorded outcome of this test.
Result block: active

Query block: Also, O=C1CCCc2c1cc1ccc3cccc4ccc2c1c34 please.
Result block: inactive

Query block: Also, Clc1ccc(C(Cn2ccnc2)OCc2ccc(Sc3ccccc3)cc2)c(Cl)c1 (stereo not drawn) please.
Result block: inactive

Query block: Also, CCCCCCCCCCCCCCCCCC[N+](C)(C)C please.
Result block: active

Query block: Also, O=C(Nc1cccc([N+](=O)[O-])c1)c1cc2ccccc2cc1O please.
Result block: inactive

###

# System: estrogen-related receptor alpha (ERRalpha) with PGC-1alpha coactivator, human
# Assay Procedure: qHTS assay to identify small molecule antagonists of the estrogen related receptor signaling pathway with the pleiotropic PPARgamma coactivator (PGC) (AID 1224821); also: nearly all actives have a fitted effect of over 50% in size
# Run Parameters: ERR/PGC reporter cell line, luciferase, antagonist mode; series mostly up to 46.1 µM
# Procedure: National Center for Advancing Translational Sciences [NCATS] NIH Chemical Genomics Center [NCGC] U.S. Environmental Protection Agency [EPA] National Institutes of Environmental Health Sciences [NIEHS] National Toxicology Program [NTP] […] The PGC/ERR cells were dispensed at 2,000 cells/5 ul/well in 1536-well white plates using a Multidrop dispenser. […] After 30 min incubation at room temperature, the luminescence intensity in the plates was measured using a ViewLux plate reader.
Results filed as inconclusive are left out. Active and inactive are the calls of the source. Calls follow the shape of the full dose curve.
Use one of these outcomes when replying: 1 (yes) for active, 0 (no) for inactive

For orientation, consider the following solved cases.
{"Compound": "OCCN1CCN(CC/C=C2/c3ccccc3Sc3ccc(C(F)(F)F)cc32)CC1", "Group": "0 (no)"}
{"Compound": "Clc1ccc2nsnc2c1NC1=NCCN1", "Group": "0 (no)"}
{"Compound": "CN(C)[C@@H]1C(=O)C(C(N)=O)=C(O)[C@@]2(O)C(=O)C3=C(O)c4c(O)ccc(Cl)c4[C@@H](O)[C@H]3C[C@@H]12", "Group": "0 (no)"}

Query block: GET /call?item= OCc1c[nH]c2ccccc12 returns the recorded outcome of this test.
Result block: 0 (no)

Query block: Also, CCCC1O[C@@H]2C[C@H]3[C@@H]4CCC5=CC(=O)C=C[C@]5(C)[C@H]4[C@@H](O)C[C@]3(C)[C@]2(C(=O)CO)O1 (stereo partly specified) please.
Result block: 0 (no)

Query block: Also, Clc1ccccc1C(c1ccccc1)(c1ccccc1)n1ccnc1 please.
Result block: 1 (yes)

###

# Target Or Test System: Progesterone receptor (Homo sapiens) (UniProt P06401)
# Sequence (P06401 whole entry, looked up): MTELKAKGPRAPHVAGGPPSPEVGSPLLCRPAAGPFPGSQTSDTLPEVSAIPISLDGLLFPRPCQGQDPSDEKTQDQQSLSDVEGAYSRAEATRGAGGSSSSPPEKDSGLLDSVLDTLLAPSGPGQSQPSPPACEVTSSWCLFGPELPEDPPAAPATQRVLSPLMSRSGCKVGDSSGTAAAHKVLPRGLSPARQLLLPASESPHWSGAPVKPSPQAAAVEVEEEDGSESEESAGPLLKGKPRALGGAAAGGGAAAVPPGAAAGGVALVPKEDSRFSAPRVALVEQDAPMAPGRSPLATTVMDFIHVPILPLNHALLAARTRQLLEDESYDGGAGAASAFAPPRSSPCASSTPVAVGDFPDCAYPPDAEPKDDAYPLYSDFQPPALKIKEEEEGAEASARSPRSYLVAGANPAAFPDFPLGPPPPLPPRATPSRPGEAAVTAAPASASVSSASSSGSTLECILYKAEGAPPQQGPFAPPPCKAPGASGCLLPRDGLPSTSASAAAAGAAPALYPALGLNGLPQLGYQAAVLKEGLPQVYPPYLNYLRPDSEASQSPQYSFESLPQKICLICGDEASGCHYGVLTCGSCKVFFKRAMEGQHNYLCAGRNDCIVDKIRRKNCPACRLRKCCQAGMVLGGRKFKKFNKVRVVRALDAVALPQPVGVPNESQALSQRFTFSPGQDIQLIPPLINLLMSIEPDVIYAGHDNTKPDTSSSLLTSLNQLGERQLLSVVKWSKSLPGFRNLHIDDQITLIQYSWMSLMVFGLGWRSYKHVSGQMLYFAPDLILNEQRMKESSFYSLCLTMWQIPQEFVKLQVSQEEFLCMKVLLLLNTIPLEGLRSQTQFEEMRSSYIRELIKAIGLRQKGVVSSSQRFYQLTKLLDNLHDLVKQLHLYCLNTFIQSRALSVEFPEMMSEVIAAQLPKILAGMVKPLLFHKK
# Assay Procedure: qHTS assay to identify small molecule antagonists of the progesterone receptor (PR) signaling pathway (AID 1346795)
# Run Parameters: PR-UAS-bla HEK293T, beta-lactamase FRET ratio, 16 h; series mostly up to 92.4 µM
Results filed as inconclusive are left out. Calls of active or inactive are those of the source. Calls follow the shape of the dose curve; as a rule, active = well fitted inhibition curve with a large enough effect in the signal ratio in the repeat runs (not every such curve was filed as active); inconclusive = weak or mixed curves; inactive = flat fitted curve, though single readings scatter; the % refers to the signal ratio.
Use one of these outcomes when replying: active, inactive

{"Molecule": "O=C(Oc1ccccc1)c1ccccc1C(=O)Oc1ccccc1", "Group": "active"}
{"Molecule": "CCCCCCCCS(=O)C(C)Cc1ccc2c(c1)OCO2 (configuration not stated)", "Group": "active"}
{"Molecule": "CCCCCCCCCCC=O", "Group": "inactive"}
{"Molecule": "CN1CCN(CCC(=O)N2c3ccccc3Sc3ccc(C(F)(F)F)cc32)CC1", "Group": "active"}
{"Molecule": "CN(C)[C@@H]1C(=O)C(C(N)=O)=C(O)[C@@]2(O)C(=O)C3=C(O)c4c(O)ccc(Cl)c4[C@@H](O)[C@H]3C[C@@H]12", "Group": "inactive"}
{"Molecule": "NNC(=O)c1cccc(C(=O)NN)c1", "Group": "inactive"}
{"Molecule": "ON=C1CCCC1", "Group": "inactive"}
{"Molecule": "OCc1c[nH]c2ccccc12", "Group": "active"}

Query block: GET /call?item= CCCC/C=C/CCCCO returns the recorded outcome of this test.
Result block: inactive

Query block: Also, COc1cc(/C=C/C(=O)O[C@H]2CC[C@]34C[C@]35CC[C@]3(C)[C@@H]([C@H](C)CCC=C(C)C)CC[C@@]3(C)[C@@H]5CC[C@H]4C2(C)C)ccc1O please.
Result block: inactive

Query block: Also, Cc1cc(O)c2ccccc2c1O please.
Result block: active

Query block: Also, O=S1(=O)CC(Cl)(Cl)C(Cl)(Cl)C1 please.
Result block: active

Numbers sourced from PubChem BioAssay (Tox21).
